# tested.on: CYP2C9 (Homo sapiens)
# Sequence (P11712 whole entry): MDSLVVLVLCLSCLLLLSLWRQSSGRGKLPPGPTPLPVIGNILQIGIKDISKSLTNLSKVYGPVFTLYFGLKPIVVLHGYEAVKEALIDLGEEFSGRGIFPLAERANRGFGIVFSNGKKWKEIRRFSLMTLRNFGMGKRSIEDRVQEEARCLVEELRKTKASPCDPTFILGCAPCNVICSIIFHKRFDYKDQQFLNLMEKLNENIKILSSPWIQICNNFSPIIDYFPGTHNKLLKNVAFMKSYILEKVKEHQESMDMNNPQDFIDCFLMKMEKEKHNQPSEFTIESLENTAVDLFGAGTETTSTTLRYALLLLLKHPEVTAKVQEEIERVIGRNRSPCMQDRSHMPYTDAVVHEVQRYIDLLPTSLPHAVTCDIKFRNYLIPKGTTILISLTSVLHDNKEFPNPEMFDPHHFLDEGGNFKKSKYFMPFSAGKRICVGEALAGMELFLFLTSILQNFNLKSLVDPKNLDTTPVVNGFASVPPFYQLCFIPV
# test: Kinetic properties of fluorogenic substrates with CYP 2C9
# Assay type: biochemical
# condition.context: turnover rate at 1.25 uM substrate; — = too low to quantify
# note: exactly 0.01 min⁻¹ is not below, so it is label 0; use label 1 for v (1.25 uM) strictly under it

Record excerpt, results attached:
{"compound": "COc1ccc(COc2ccc3nc4ccc(=O)cc-4oc3c2)cc1", "category.label": "label 0"}
{"compound": "CCCCCCCCOCOc1ccc2nc3ccc(=O)cc-3oc2c1", "category.label": "label 0"}
{"compound": "N#Cc1cc2ccc(OCOCc3ccccc3)cc2oc1=O", "category.label": "label 0"}
{"compound": "N#Cc1cc2ccc(OCc3ccccc3)cc2oc1=O [BCC, 7-Benzyloxy-3-cyanocoumarin, reference compound]", "category.label": "label 1"}
{"compound": "COc1ccc2cc(C#N)c(=O)oc2c1 [3CMC, 3-cyano-7-methoxycoumarin, reference compound]", "category.label": "label 1"}
{"compound": "COCOc1ccc2c(C(F)(F)F)cc(=O)oc2c1", "category.label": "label 1"}

Okay, now this compound:
## Task I'd appreciate it if you could check whether `COc1ccc(COc2ccc3c(C(F)(F)F)cc(=O)oc3c2)cc1` has v (1.25 uM) smaller than 0.01 min⁻¹.
## Result label 0

----------
# tested.on: CYP3A4 (Homo sapiens)
# Sequence (P08684 whole entry): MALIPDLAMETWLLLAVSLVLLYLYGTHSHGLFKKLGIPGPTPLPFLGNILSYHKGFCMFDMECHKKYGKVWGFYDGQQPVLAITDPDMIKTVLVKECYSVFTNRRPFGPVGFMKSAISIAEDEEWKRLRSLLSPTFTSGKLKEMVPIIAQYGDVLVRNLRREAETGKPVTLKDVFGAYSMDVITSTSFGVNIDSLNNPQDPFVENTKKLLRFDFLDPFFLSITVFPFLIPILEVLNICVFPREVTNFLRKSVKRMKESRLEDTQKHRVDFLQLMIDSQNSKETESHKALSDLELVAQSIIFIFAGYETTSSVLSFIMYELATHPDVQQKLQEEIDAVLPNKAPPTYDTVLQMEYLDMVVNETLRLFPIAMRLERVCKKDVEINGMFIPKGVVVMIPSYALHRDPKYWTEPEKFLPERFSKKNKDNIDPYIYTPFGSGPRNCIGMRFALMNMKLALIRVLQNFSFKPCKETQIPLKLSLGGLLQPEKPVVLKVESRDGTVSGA
# test: Kinetic properties of fluorogenic substrates with CYP 3A4
# Assay type: biochemical
# condition.context: turnover rate at 1.25 uM substrate; — = too low to quantify
Label 1 (yes) when v (1.25 uM) >= 0.04 min⁻¹; otherwise 0 (no).

// known answers, use as guide
{"compound": "O=C(OCc1ccccc1)c1c2oc3cc(OCc4ccccc4)ccc3nc-2ccc1=O [BRCBE]", "category.label": "1 (yes)"}
{"compound": "CC1(C)C2=C(Cl)C(=O)C(Cl)=CC2=Nc2ccc(OCOCc3ccccc3)cc21 [BOM-DDAO]", "category.label": "1 (yes)"}
{"compound": "O=c1ccc2nc3ccc(OCc4ccccc4)cc3oc-2c1 [BR, Benzylresorufin, reference compound]", "category.label": "0 (no)"}

Please turn your attention to the following entry.
## Task Does the reported v (1.25 uM) for CCCCCCCCOCOc1ccc2cc(C#N)c(=O)oc2c1 [OOMCC] fall at or above the 0.04 min⁻¹ mark?
## Result 1 (yes)

----------
# tested.on: CYP3A4 (Homo sapiens)
# test: Kinetic properties of fluorogenic substrates with CYP 3A4
# Type: biochemical
# condition.context: turnover rate at 10 uM substrate; — = too low to quantify
Decide using v (10 uM): a value greater than or equal to 0.9 min⁻¹ is true, a smaller one is false.

Some solved entries appear below for comparison.
{"compound": "O=c1ccc2nc3ccc(OCc4ccccc4)cc3oc-2c1 [BR, Benzylresorufin, reference compound]", "category.label": "false"}
{"compound": "CCCCCCCCOCOc1ccc2nc3ccc(=O)cc-3oc2c1", "category.label": "false"}
{"compound": "N#Cc1cc2ccc(OCOCc3ccccc3)cc2oc1=O", "category.label": "true"}
{"compound": "O=C(OCc1ccccc1)c1c2oc3cc(OCc4ccccc4)ccc3nc-2ccc1=O", "category.label": "false"}
{"compound": "CCOCOc1ccc2nc3ccc(=O)cc-3oc2c1", "category.label": "false"}

## Task Identify whether the reported v (10 uM) of the following compound is 0.9 min⁻¹ or greater: `CCCCCCCCOCOc1ccc2cc(C#N)c(=O)oc2c1`
## Result true

## Task And then `CC1(C)C2=C(Cl)C(=O)C(Cl)=CC2=Nc2ccc(OCOCc3ccccc3)cc21` , what is it?
## Result true

## Task Note, next up: `COCOc1ccc2nc3ccc(=O)cc-3oc2c1`
## Result false

## Task Also check O=c1cc(C(F)(F)F)c2ccc(OCc3ccccc3)cc2o1 [BFC, 7-Benzyloxy-4-trifluoromethylcoumarin, reference compound]
## Result false
